# System: Salmonella enterica subsp. enterica
# procedure.details: Antimicrobial activity against Salmonella Typhimurium ATCC 14028 after 18 hrs by broth microdilution susceptibility test
# Format: functional, Salmonella enterica subsp. enterica serovar Typhimurium
# conditions.used: ATCC 14028, 18 h
Starred links: 1 amine or outer side, 2 acyl side, 3 side chain; linkers in the order of their positions; H or OH if unused. Non-standard residues stand in square brackets, D forms with d. Residues, ends and D or L forms follow the SMILES beside them. X1 = N=C(N)NCCN(CC(=O)[*:2])[*:1]

{"molecule": "CC[C@H](C)[C@H](NC(=O)[C@H](Cc1ccc(O)cc1)NC(=O)[C@@H](NC(=O)[C@@H]1CCCN1C(=O)[C@H](CCCNC(=N)N)NC(=O)[C@H](CC(N)=O)NC(=O)[C@H](CC(N)=O)NC(=O)CN)C(C)C)C(=O)N1CCC[C@H]1C(=O)N[C@@H](CCC(N)=O)C(=O)N1CCC[C@H]1C(=O)N(CCNC(=N)N)CC(=O)N1CCC[C@H]1C(=O)N1CCC[C@H]1C(=O)N[C@@H](Cc1cnc[nH]1)C(=O)N1CCC[C@H]1C(=O)N[C@@H](CCCNC(=N)N)C(=O)N[C@@H](CC(C)C)C(=O)O (H-GNNRPVYIPQP[X1]PPHPRL-OH)", "MIC, µM": 32}

###

# procedure.details: Membrane permeabilization in eukaryotic membrane model consisting of single unilamellar vesicle of L-alpha-phosphatidylcholine-cholesterol assessed as 5(6)-carboxyfluorescein release at high peptide-to-lipid ratio after 50 mins by fluorescence assay
# Type: ADME, cell membranes
Non-standard residues stand in square brackets, D forms with d. Residues, ends and D or L forms follow the SMILES beside them. Gly(N-(CH2)3-guanidino) = N=C(N)NCCCNCC(=O)O
measure: Activity

{"compound": "CC[C@H](C)[C@H](NC(=O)[C@H](Cc1ccc(O)cc1)NC(=O)[C@@H](NC(=O)[C@@H]1CCCN1C(=O)[C@H](CCCNC(=N)N)NC(=O)[C@H](CC(N)=O)NC(=O)[C@H](CC(N)=O)NC(=O)CN)C(C)C)C(=O)N1CCC[C@H]1C(=O)N[C@@H](CCC(N)=O)C(=O)N1CCC[C@H]1C(=O)N[C@@H](CCCNC(=N)N)C(=O)N1CCC[C@H]1C(=O)N1CCC[C@H]1C(=O)N[C@@H](Cc1cnc[nH]1)C(=O)N1CCC[C@H]1C(=O)N[C@@H](CCCNC(=N)N)C(=O)N[C@@H](CC(C)C)C(=O)O", "measured": "Not Active"}
{"compound": "CC[C@H](C)[C@H](NC(=O)[C@H](Cc1ccc(O)cc1)NC(=O)[C@@H](NC(=O)[C@@H]1CCCN1C(=O)[C@H](CCCNC(=N)N)NC(=O)[C@H](CC(N)=O)NC(=O)[C@H](CC(N)=O)NC(=O)CN)C(C)C)C(=O)N1CCC[C@H]1C(=O)N[C@@H](CCC(N)=O)C(=O)N1CCC[C@H]1C(=O)N(CCCNC(=N)N)CC(=O)N1CCC[C@H]1C(=O)N1CCC[C@H]1C(=O)N[C@@H](Cc1cnc[nH]1)C(=O)N1CCC[C@H]1C(=O)N[C@@H](CCCNC(=N)N)C(=O)N[C@@H](CC(C)C)C(=O)O (H-GNNRPVYIPQP[Gly(N-(CH2)3-guanidino)]PPHPRL-OH)", "measured": "Not Active"}

###

# System: Salmonella enterica subsp. enterica
# procedure.details: Antimicrobial activity against Salmonella Typhimurium ATCC 14028 after 18 hrs by broth microdilution susceptibility test
# Type: functional, Salmonella enterica subsp. enterica serovar Typhimurium
# conditions.used: ATCC 14028, 18 h
Non-standard residues stand in square brackets, D forms with d. Residues, ends and D or L forms follow the SMILES beside them. NhArg = N=C(N)NCCCCNCC(=O)O
measure: MIC

{"compound": "CC[C@H](C)[C@H](NC(=O)[C@H](Cc1ccc(O)cc1)NC(=O)[C@@H](NC(=O)[C@@H]1CCCN1C(=O)[C@H](CCCNC(=N)N)NC(=O)[C@H](CC(N)=O)NC(=O)[C@H](CC(N)=O)NC(=O)CN)C(C)C)C(=O)N1CCC[C@H]1C(=O)N[C@@H](CCC(N)=O)C(=O)N1CCC[C@H]1C(=O)N[C@@H](CCCNC(=N)N)C(=O)N1CCC[C@H]1C(=O)N1CCC[C@H]1C(=O)N[C@@H](Cc1cnc[nH]1)C(=O)N1CCC[C@H]1C(=O)N(CCCCNC(=N)N)CC(=O)N[C@@H](CC(C)C)C(=O)O (H-GNNRPVYIPQPRPPHP[NhArg]L-OH)", "measured": "> 128 µM"}

###

Items are presented alongside their recorded MIC.
# Tested on: Klebsiella pneumoniae
# procedure.details: Antimicrobial activity against Klebsiella pneumoniae 22 after 18 hrs by broth microdilution susceptibility test
# Assay type: functional
# conditions.used: Klebsiella pneumoniae, 22, 18 h
Non-standard residues stand in square brackets, D forms with d. Residues, ends and D or L forms follow the SMILES beside them. Gly(N-(CH2)3-guanidino) = N=C(N)NCCCNCC(=O)O

{"molecule": "CC[C@H](C)[C@H](NC(=O)[C@H](Cc1ccc(O)cc1)NC(=O)[C@@H](NC(=O)[C@@H]1CCCN1C(=O)[C@H](CCCNC(=N)N)NC(=O)[C@H](CC(N)=O)NC(=O)[C@H](CC(N)=O)NC(=O)CN)C(C)C)C(=O)N1CCC[C@H]1C(=O)N[C@@H](CCC(N)=O)C(=O)N1CCC[C@H]1C(=O)N(CCCNC(=N)N)CC(=O)N1CCC[C@H]1C(=O)N1CCC[C@H]1C(=O)N[C@@H](Cc1cnc[nH]1)C(=O)N1CCC[C@H]1C(=O)N[C@@H](CCCNC(=N)N)C(=O)N[C@@H](CC(C)C)C(=O)O (H-GNNRPVYIPQP[Gly(N-(CH2)3-guanidino)]PPHPRL-OH)", "MIC": "> 128 µM"}
{"molecule": "CC[C@H](C)[C@H](NC(=O)[C@H](Cc1ccc(O)cc1)NC(=O)[C@@H](NC(=O)[C@@H]1CCCN1C(=O)[C@H](CCCNC(=N)N)NC(=O)[C@H](CC(N)=O)NC(=O)[C@H](CC(N)=O)NC(=O)CN)C(C)C)C(=O)N1CCC[C@H]1C(=O)N[C@@H](CCC(N)=O)C(=O)N1CCC[C@H]1C(=O)N[C@@H](CCCNC(=N)N)C(=O)N1CCC[C@H]1C(=O)N[C@@H](Cc1cnc[nH]1)C(=O)N1CCC[C@H]1C(=O)N[C@@H](CCCNC(=N)N)C(=O)N[C@@H](CC(C)C)C(=O)O (H-GNNRPVYIPQPRPHPRL-OH)", "MIC": "> 128 µM"}
{"molecule": "CC[C@H](C)[C@H](NC(=O)[C@H](Cc1ccc(O)cc1)NC(=O)[C@@H](NC(=O)[C@@H]1CCCN1C(=O)CN(CCCNC(=N)N)C(=O)[C@H](CC(N)=O)NC(=O)[C@H](CC(N)=O)NC(=O)CN)C(C)C)C(=O)N1CCC[C@H]1C(=O)N[C@@H](CCC(N)=O)C(=O)N1CCC[C@H]1C(=O)N[C@@H](CCCNC(=N)N)C(=O)N1CCC[C@H]1C(=O)N1CCC[C@H]1C(=O)N[C@@H](Cc1cnc[nH]1)C(=O)N1CCC[C@H]1C(=O)N[C@@H](CCCNC(=N)N)C(=O)N[C@@H](CC(C)C)C(=O)O (H-GNN[Gly(N-(CH2)3-guanidino)]PVYIPQPRPPHPRL-OH)", "MIC": "> 128 µM"}
{"molecule": "CC[C@H](C)[C@H](NC(=O)[C@H](Cc1ccc(O)cc1)NC(=O)[C@@H](NC(=O)[C@@H]1CCCN1C(=O)[C@H](CCCNC(=N)N)NC(=O)[C@H](CC(N)=O)NC(=O)[C@H](CC(N)=O)NC(=O)CN)C(C)C)C(=O)N1CCC[C@H]1C(=O)N[C@@H](CCC(N)=O)C(=O)N1CCC[C@H]1C(=O)N[C@@H](CCCNC(=N)N)C(=O)N1CCC[C@H]1C(=O)N1CCC[C@H]1C(=O)N[C@@H](Cc1cnc[nH]1)C(=O)N1CCC[C@H]1C(=O)N[C@@H](CCCNC(=N)N)C(=O)N[C@@H](CC(C)C)C(=O)O", "MIC": "64 µM"}

###

Measured MIC by item
# Test system: Salmonella enterica subsp. enterica
# procedure.details: Antimicrobial activity against Salmonella enteritidis D5 after 18 hrs by broth microdilution susceptibility test
# Assay type: functional, Salmonella enterica subsp. enterica serovar Enteritidis
# conditions.used: D5, 18 h
Starred links: 1 amine or outer side, 2 acyl side, 3 side chain; linkers in the order of their positions; H or OH if unused. Non-standard residues stand in square brackets, D forms with d. Residues, ends and D or L forms follow the SMILES beside them. X1 = N=C(N)NCCN(CC(=O)[*:2])[*:1]; NhArg = N=C(N)NCCCCNCC(=O)O
measure: MIC (µM)

{"molecule": "CC[C@H](C)[C@H](NC(=O)[C@H](Cc1ccc(O)cc1)NC(=O)[C@@H](NC(=O)[C@@H]1CCCN1C(=O)[C@H](CCCNC(=N)N)NC(=O)[C@H](CC(N)=O)NC(=O)[C@H](CC(N)=O)NC(=O)CN)C(C)C)C(=O)N1CCC[C@H]1C(=O)N[C@@H](CCC(N)=O)C(=O)N1CCC[C@H]1C(=O)N[C@@H](CCCNC(=N)N)C(=O)N1CCC[C@H]1C(=O)N1CCC[C@H]1C(=O)N[C@@H](Cc1cnc[nH]1)C(=O)N1CCC[C@H]1C(=O)N(CCCCNC(=N)N)CC(=O)N[C@@H](CC(C)C)C(=O)O (H-GNNRPVYIPQPRPPHP[NhArg]L-OH)", "comparator": ">", "measured": 128}
{"molecule": "CC[C@H](C)[C@H](NC(=O)[C@H](Cc1ccc(O)cc1)NC(=O)[C@@H](NC(=O)[C@@H]1CCCN1C(=O)[C@H](CCCNC(=N)N)NC(=O)[C@H](CC(N)=O)NC(=O)[C@H](CC(N)=O)NC(=O)CN)C(C)C)C(=O)N1CCC[C@H]1C(=O)N[C@@H](CCC(N)=O)C(=O)N1CCC[C@H]1C(=O)N(CCNC(=N)N)CC(=O)N1CCC[C@H]1C(=O)N1CCC[C@H]1C(=O)N[C@@H](Cc1cnc[nH]1)C(=O)N1CCC[C@H]1C(=O)N[C@@H](CCCNC(=N)N)C(=O)N[C@@H](CC(C)C)C(=O)O (H-GNNRPVYIPQP[X1]PPHPRL-OH)", "comparator": "=", "measured": 64}

Reference source: ChEMBL document CHEMBL1152983
